Biological target: UniProt P14842
Assay: in-vitro affinity to 5-HT2A receptors, displacement of [3H]ketanserine (Example A1)
Format: binding
Conditions: read-out: HT2A IC50
property_label: IC50

If you can, please state the reported IC50 value of Cc1ccc(-c2ccc(-n3ncc(CN4CCN(C)CC4)c3-c3ccccc3F)cc2)c(F)c1F [Example 959] . 60 nM

Also need COc1cccc(-c2ccc(-n3ncc(CN4CCN(C)CC4)c3-c3ccccc3F)cc2)c1 [Example 930] , thanks. 29 nM

Also need CC(C)(C)OC(=O)N1CCN(Cc2cnn(-c3ccc(C(F)(F)F)cc3)c2-c2ccccc2F)CC1 [Example 896] , thanks. 8 nM

Also need O=S1(=O)CCN(Cc2cnn(-c3ccc(-c4ccccc4)cc3)c2-c2ccccc2F)CC1 [Example 945] , thanks. 43 nM

---

Field: IC50. Provide a value for each of the molecules that follow.
Molecular target: 5-HT2A receptors (Rattus norvegicus, UniProt P14842)
Sequence (P14842 whole entry): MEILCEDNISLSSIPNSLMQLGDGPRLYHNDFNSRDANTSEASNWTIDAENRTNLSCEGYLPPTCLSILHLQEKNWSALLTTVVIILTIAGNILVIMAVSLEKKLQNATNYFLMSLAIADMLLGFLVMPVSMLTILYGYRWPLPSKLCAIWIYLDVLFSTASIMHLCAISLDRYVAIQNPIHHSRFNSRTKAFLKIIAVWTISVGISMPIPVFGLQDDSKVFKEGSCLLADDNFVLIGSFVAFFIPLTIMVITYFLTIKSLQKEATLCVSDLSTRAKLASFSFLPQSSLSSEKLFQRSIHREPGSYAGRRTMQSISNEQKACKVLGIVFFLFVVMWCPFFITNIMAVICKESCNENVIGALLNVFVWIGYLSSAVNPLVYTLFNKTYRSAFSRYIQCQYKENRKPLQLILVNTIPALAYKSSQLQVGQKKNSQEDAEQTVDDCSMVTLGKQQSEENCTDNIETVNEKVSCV
Assay: in-vitro affinity to 5-HT2A receptors, displacement of [3H]ketanserine (Example A1)
Format: binding
Details: read-out: HT2A IC50
Unit nM implied. Number only.

If you can, please state the reported IC50 value of c1ccc(-c2ccc(-n3ncc(CNCc4ccncc4)c3-c3ccccc3)cc2)cc1 . 31

Also need O=C(c1ccc(F)cc1)C1CCN(Cc2cnn(-c3ccc(-c4ccc(F)cc4)cc3)c2-c2ccccc2Cl)CC1 , thanks. 230

Also need CN1CCN(Cc2cnn(-c3ccc(-c4ccc(F)cc4)cc3)c2-c2ccc(Cl)c(Cl)c2)CC1 , thanks. 190

Also need CC1CN(Cc2cnn(-c3ccc(-c4ccccc4)cc3)c2-c2ccccc2F)CC(C)N1 (centres unmarked) , thanks. 100

Also need OC1CCN(Cc2cnn(-c3ccc(-c4ccccc4)cc3)c2-c2ccccc2F)CC1 , thanks. 430

Also need CCN1CCN(Cc2cnn(-c3ccc(-c4ccccc4)cc3)c2-c2ccccc2F)CC1 , thanks. 28

Also need CN1CCC(N(C)Cc2cnn(-c3ccc(-c4ccccc4)cc3)c2-c2ccccc2F)C1 (centres unmarked) , thanks. 16

Also need OCc1cnn(-c2ccc(-c3ccc(F)cc3)cc2)c1-c1cccc(Cl)c1 , thanks. 140

Also need CN1CCN(Cc2cnn(-c3ccc(-c4ccccc4)cc3)c2-c2ccccn2)CC1 , thanks. 50

Also need NCCNCc1cnn(-c2ccc(-c3ccccc3)cc2)c1-c1ccccc1F , thanks. 6.5

Also need CN1CCN(Cc2cnn(-c3ccc(-c4ccc(F)cc4)cc3)c2-c2cccc(F)c2)CC1 , thanks. 19

Also need Cc1ccccc1-c1ccc(-n2ncc(CN3CCN(C)CC3)c2-c2ccccc2F)cc1 , thanks. 230

Also need CN1CCN(Cc2cnn(-c3ccc(-c4ccc(Cl)cc4)cc3)c2-c2ccccc2F)CC1 , thanks. 23

Also need CN1CCN(Cc2cnn(-c3ccc(-c4ccccc4Cl)cc3)c2-c2ccccc2F)CC1 , thanks. 120

Also need CCN(CC)CC1CCCCN1Cc1cnn(-c2ccc(-c3ccccc3)cc2)c1-c1ccccc1F (centres unmarked) , thanks. 270

Also need OCCN1CCN(Cc2cnn(-c3ccc(-c4ccccc4)cc3)c2-c2ccccc2F)CC1 , thanks. 280

Also need Fc1ccccc1-c1c(CN2CC3CC2CO3)cnn1-c1ccc(-c2ccccc2)cc1 (centres unmarked) , thanks. 160

Also need N#CC(NCc1cnn(-c2ccc(-c3ccccc3)cc2)c1-c1ccccc1F)C(N)=O (centres unmarked) , thanks. 130

Also need Fc1ccccc1-c1c(CN2CCCCCC2)cnn1-c1ccc(-c2ccccc2)cc1 , thanks. 48

Also need Fc1ccc(F)c(-c2ccc(-n3ncc(CNCC4CCCO4)c3-c3ccccc3F)cc2)c1 (centres unmarked) , thanks. 370

Also need CN(C)CCc1cnn(-c2ccc(-c3ccc(F)cc3)cc2)c1-c1ccccc1F , thanks. 1.5

Also need CN1CCN(Cc2cnn(-c3ccc(-c4ccc(C#N)cc4)cc3)c2-c2ccccc2F)CC1 , thanks. 53

Also need CN1CCN(Cc2cnn(-c3ccc(-c4cc(F)ccc4F)cc3)c2-c2ccccc2F)CC1 , thanks. 55

Also need CN1CCN(Cc2cnn(-c3ccc(C(F)(F)F)cn3)c2-c2ccccc2F)CC1 , thanks. 39

Also need CN(C)Cc1cnn(-c2ccc(C(F)(F)F)cn2)c1-c1ccccc1F , thanks. 35

Also need Cc1ccccc1-c1c(CN2CCN(C)CC2)cnn1-c1ccc(-c2ccc(F)cc2)cc1 , thanks. 72

Also need CCN1CCN(Cc2cnn(-c3ccc(-c4ccc(F)cc4)cc3)c2-c2cccc(OC)c2)CC1 , thanks. 35

Also need CN1CCN(Cc2cnn(-c3ccc(-n4cccc4)cc3)c2-c2ccccc2F)CC1 , thanks. 17

Also need Fc1ccccc1-c1c(CCCN2CCOCC2)cnn1-c1ccc(-c2ccccc2)cc1 , thanks. 23

Also need OC1CCN(Cc2cnn(-c3ccc(-c4ccc(F)cc4)cc3)c2-c2ccc(Cl)cc2)C1 (centres unmarked) , thanks. 170

Also need CCN1CCCC1CNCc1cnn(-c2ccc(-c3ccccc3)cc2)c1-c1ccccc1F (centres unmarked) , thanks. 46.9

Also need Cc1nn(-c2ccccc2)c(C)c1CN1CCN(C(=O)CC(C)C(=O)O)CC1 (centres unmarked) , thanks. 100

Also need CN1CCN(Cc2cnn(-c3ccc(-c4ccc(F)cc4F)cc3)c2-c2ccccc2F)CC1 , thanks. 56

Also need CC(C)c1ccc(-n2ncc(CN3CCN(C)CC3)c2-c2ccccc2F)cc1 , thanks. 120

Also need Fc1ccccc1-c1c(CN2CCN(Cc3ccsc3)CC2)cnn1-c1ccc(-c2ccccc2)cc1 , thanks. 380

---

Molecular target: 5-HT2A receptors (Rattus norvegicus, UniProt P14842)
Assay: in-vitro affinity to 5-HT2A receptors, displacement of [3H]ketanserine (Example A1)
Format: binding
Conditions: target not given; description names affinity to 5-HT2A receptors; read-out: IC50
property_label: IC50 (nM)
Unit nM implied. Number only.

Form: Entry = Fc1ccccc1-c1c(CN2CC3CC2CO3)cnn1-c1ccc(-c2ccccc2)cc1 (centres unmarked) | System = 5-HT2A receptors (Rattus norvegicus, UniProt P14842) | IC50 = ____ 160

Also need CN1CCC(N(C)Cc2cnn(-c3ccc(-c4ccccc4)cc3)c2-c2ccccc2F)C1 (centres unmarked) , thanks. 16

Also need O=S1(=O)CCN(Cc2cnn(-c3ccc(-c4ccccc4)cc3)c2-c2ccccc2F)CC1 , thanks. 43

Also need CCN1CCCC1CNCc1cnn(-c2ccc(-c3ccccc3)cc2)c1-c1ccccc1F (centres unmarked) , thanks. 20

Also need NC(=O)C1CCN(Cc2cnn(-c3ccc(-c4ccccc4)cc3)c2-c2ccccc2F)CC1 , thanks. 870

---

Field: pIC50. Provide a value for each of the molecules that follow.
Biological target: 5 HT2C receptor (Homo sapiens)
Sequence (P28335 33-458): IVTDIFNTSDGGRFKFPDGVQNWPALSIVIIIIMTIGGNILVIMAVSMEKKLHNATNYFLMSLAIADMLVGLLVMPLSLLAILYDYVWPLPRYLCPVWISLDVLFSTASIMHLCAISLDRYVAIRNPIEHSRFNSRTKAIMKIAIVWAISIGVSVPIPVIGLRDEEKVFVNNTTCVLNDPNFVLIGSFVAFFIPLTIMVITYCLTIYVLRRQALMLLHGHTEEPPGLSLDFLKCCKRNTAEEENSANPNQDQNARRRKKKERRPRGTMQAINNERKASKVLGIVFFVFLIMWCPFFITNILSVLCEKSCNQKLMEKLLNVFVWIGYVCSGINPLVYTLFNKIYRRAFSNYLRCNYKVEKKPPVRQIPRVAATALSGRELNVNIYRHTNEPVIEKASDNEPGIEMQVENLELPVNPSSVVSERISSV
Formally, pIC50 is defined as -log10 of the concentration c, with c in mol/L.

If you can, please state the reported pIC50 value of CCN1CCN(Cc2cnn(-c3ccc(-c4ccc(F)cc4)cc3)c2-c2ccc(Cl)cc2)CC1 . 6.00

Also need CC(C)(C)OC(=O)N1CCN(Cc2cnn(-c3ccc(C(F)(F)F)cc3)c2-c2ccccc2F)CC1 , thanks. 4.37

Also need CC(C)N1CCN(Cc2cnn(-c3ccc(-c4ccc(F)cc4)cc3)c2-c2ccccc2Cl)CC1 , thanks. 6.00

Also need COCCCNCc1cnn(-c2ccc(-c3ccccc3)cc2)c1-c1ccccc1F , thanks. 6.00

---

Molecular target: 5-HT2A receptors (Rattus norvegicus, UniProt P14842)
Assay: in-vitro affinity to 5-HT2A receptors, displacement of [3H]ketanserine (Example A1)
Assay type: binding
Conditions: target not given; description names affinity to 5-HT2A receptors; read-out: IC50
pIC50: −log10 of the molar value.
Output Y for pIC50 not less than 7; output N otherwise.

Can CN1CCN(Cc2cnn(-c3ccc(-c4ccc(F)cc4)cc3)c2-c2ccc(F)cc2)CC1 be said to have pIC50 at or above 7? Y

Also need Fc1ccccc1-c1c(CN2CCNCC2)cnn1-c1ccc(-c2ccccc2)cc1 , thanks. Y

Also need NC(=O)CNCc1cnn(-c2ccc(-c3ccccc3)cc2)c1-c1ccccc1F , thanks. N

Also need NC(=O)C1CCCN1Cc1cnn(-c2ccc(-c3ccccc3F)nc2)c1-c1ccccc1F (stereo not drawn) , thanks. N

Also need Fc1ccc(F)c(-c2ccc(-n3ncc(CNc4cc[nH]n4)c3-c3ccccc3F)cc2)c1 , thanks. N

Also need NCCNCc1cnn(-c2ccc(-c3ccccc3)cc2)c1-c1ccccc1F , thanks. Y

Also need O=C1NOCC1NCc1cnn(-c2ccc(-c3ccccc3)cc2)c1-c1ccccc1F (stereo not drawn) , thanks. N

Also need CN1CCCN(Cc2cnn(-c3ccc(-c4ccccc4)cc3)c2-c2ccccc2F)CC1 , thanks. Y

Also need CN1CCN(Cc2cnn(-c3ccc(-c4cc(F)ccc4F)cc3)c2-c2ccc(F)cc2)CC1 , thanks. N

Also need CCN1CCN(Cc2cnn(-c3ccc(-c4ccccc4)cc3)c2-c2ccccc2F)CC1 , thanks. Y

Also need Fc1ccccc1-c1c(CNCc2cccnc2)cnn1-c1ccc(-c2ccccc2)cc1 , thanks. N

Also need CCOC(=O)CNC(=O)CNCc1cnn(-c2ccc(-c3ccccc3)cc2)c1-c1ccccc1F , thanks. N

Also need c1ccc(-c2ccc(-n3ncc(CN4CCNCC4)c3-c3ccccn3)cc2)cc1 , thanks. N

Also need COCCN(C)Cc1cnn(-c2ccc(-c3ccccc3)nc2)c1-c1ccccc1F , thanks. N

Also need Fc1ccc(F)c(-c2ccc(-n3ncc(CNCC4CCCO4)c3-c3ccccc3F)cc2)c1 (stereo not drawn) , thanks. N

Also need Fc1ccccc1-c1c(CN2CCCCCC2)cnn1-c1ccc(-c2ccccc2)cc1 , thanks. Y
